The measurements presented in this section are drawn from the SangsterLogP compilation.

// logP lookup, one value per entry

The examples below pair each entry with its known result.
smiles: O=C(O)c1cccc(I)c1
result: 3
--
smiles: Oc1ccc(I)cc1
result: 2.82

Let us examine a further case.
Query: Endpoint output: logP of `O=C(O)c1ccc(F)cc1` . Value?
Response: 1.99
